Parameter: metabolised at 1 h. Scope: all listed entries.
experimentNotes: In vitro enzymatic digestion model of the digestive tract (pepsin, pancreatin, bile), HPLC
Format: in vitro ADME
setupConditions: Intestinal phase 60 min.; read-out: Degradation (%)
Where no end group is shown, it is not given here.
reportedEndpoint: metabolised at 1 h (%)

>>> testvalue("SDNFEY [Peptide P6a, SDNFEY]")
100
>>> testvalue("SVIKPPTD [Peptide P8a, SVIKPPTD]")
90.7
>>> testvalue("QGENEEEDSGAIVTVK [Peptide P16f, QGENEEEDSGAIVTVK]")
100
>>> testvalue("EEDQPRPDHPPQRP [Peptide P14c, EEDQPRPDHPPQRP]")
95
>>> testvalue("QGENEGEDKGAIVT [Peptide P14b, QGENEGEDKGAIVT]")
68.8
